- Assay system: EGFR, VEGFR-2, and Topo II
- Assay details: In vitro enzyme inhibition assays, three enzymes together
- Measurement parameters: read-out: IC50 range on EGFR, VEGFR-2, and Topo II; range over the three enzymes
Property: IC50

Ask: Any idea what IC50 was measured for COc1cc(/C=N/NC(=O)c2nnn(Cc3nc4ccccc4[nH]3)c2C)ccc1O [Compound 6g] ?
Reply: 0.131 to 8.37 µM

----------
The entries below are paired with their reported pIC50.
- Tested on: HeLa cells
- Assay details: MTT cytotoxicity assay, HeLa
- Measurement parameters: Homo sapiens, 48 h, read-out: In vitro Cytotoxicity IC50 HeLa
FYI, pIC50 means -log10 of a concentration in mol per litre.

Here are 3 compounds together with their reported answers.
Compound	Assay result
COc1ccc(/C=N/NC(=O)c2nnn(Cc3nc4ccccc4[nH]3)c2C)cc1OC [Compound 6e]	4.54
Cc1c(C(=O)NNC(=S)Nc2ccccc2)nnn1Cc1nc2ccccc2[nH]1 [Compound 5d]	4.91
Cc1c(C(=O)N/N=C/c2ccc(N(C)C)cc2)nnn1Cc1nc2ccccc2[nH]1 [Compound 6f]	4.64

Ask: # get_value(readout='pIC50', item= COc1ccc(NC(=S)NNC(=O)c2nnn(Cc3nc4ccccc4[nH]3)c2C)cc1 [Compound 5g] )
Reply: 5.06

Ask: Which pIC50 value belongs to COc1cc(/C=N/NC(=O)c2nnn(Cc3nc4ccccc4[nH]3)c2C)ccc1O [Compound 6g] ?
Reply: 5.01

Ask: Request the reported pIC50 associated with Cc1c(C(=O)N/N=C/c2ccccc2)nnn1Cc1nc2ccccc2[nH]1 [Compound 6b]
Reply: 4.21

Ask: Could you tell me which pIC50 is on file for Cc1c(C(=O)N/N=C/c2cccc([N+](=O)[O-])c2)nnn1Cc1nc2ccccc2[nH]1 [Compound 6d] ?
Reply: 4.28

Ask: Data request, read-out pIC50, for Cc1c(C(=O)N/N=C/c2ccc(Cl)cc2)nnn1Cc1nc2ccccc2[nH]1 [Compound 6a]
Reply: 4.45
